The measurements presented in this section are drawn from patent US20200024330A1.

Please provide measured Fold IC50 increase relative to wild-type for the entries that follow.
Target: HIV-1 JR-CSF Env R419A (HIV-1 (isolate JR-CSF)) (UniProt P20871)
Experiment: cell-based or functional assay
Could you give me the number in fold? Just the number is fine.

Problem: Give its Fold IC50 increase relative to wild-type value. Item: PGT-131 (antibody, V domains shown) VH: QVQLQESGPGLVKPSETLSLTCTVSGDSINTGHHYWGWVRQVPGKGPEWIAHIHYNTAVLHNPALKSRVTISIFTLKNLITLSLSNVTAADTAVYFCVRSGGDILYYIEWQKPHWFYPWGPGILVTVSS VL: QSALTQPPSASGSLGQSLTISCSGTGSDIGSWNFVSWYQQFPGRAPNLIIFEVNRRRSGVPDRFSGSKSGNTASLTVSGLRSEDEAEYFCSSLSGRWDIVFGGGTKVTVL
Result: 1.7

Problem: Give its Fold IC50 increase relative to wild-type value. Item: PGT-123 (antibody, V domains shown) VH: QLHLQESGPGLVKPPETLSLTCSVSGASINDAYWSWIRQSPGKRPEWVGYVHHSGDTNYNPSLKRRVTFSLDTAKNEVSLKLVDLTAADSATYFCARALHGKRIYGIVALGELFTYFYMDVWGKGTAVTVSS VL: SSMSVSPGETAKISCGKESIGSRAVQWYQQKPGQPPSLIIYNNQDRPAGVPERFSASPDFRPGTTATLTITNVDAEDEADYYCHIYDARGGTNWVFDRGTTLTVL
Result: 0.7

Problem: Give its Fold IC50 increase relative to wild-type value. Item: PGT-126 (antibody, V domains shown) VH: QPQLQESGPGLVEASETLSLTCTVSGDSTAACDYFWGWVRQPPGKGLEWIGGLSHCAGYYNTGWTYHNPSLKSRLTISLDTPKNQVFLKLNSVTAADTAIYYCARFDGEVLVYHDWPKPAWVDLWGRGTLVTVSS VL: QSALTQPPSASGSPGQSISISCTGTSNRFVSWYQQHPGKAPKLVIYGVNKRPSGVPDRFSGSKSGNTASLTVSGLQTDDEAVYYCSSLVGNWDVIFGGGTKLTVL
Result: 1.2
